Values were extracted from ChEMBL document CHEMBL1146967.

- test.summary: Cmax in monkey at 2 mg/kg, po
- Assay type: ADME, organism-based, Macaca mulatta
- Design: dose 2 mg/kg, route oral
- details: rhesus monkey, in vivo

- input.smiles: "CC(C)(C(=O)O)c1ccc(-c2ccccc2)c(F)c1"
  Cmax, µM: 27.3

* * *

- test.summary: Clearance in rat at 2 mg/kg, iv
- Type: ADME, organism-based
- Set-up: dose 2 mg/kg, route intravenous
- details: in vivo

- input.smiles: "CC(C)(C(=O)O)c1ccc(-c2ccccc2)c(F)c1"
  unit.abbrev: "mL/min/kg"
  clearance: 1.3

* * *

- System: Mus musculus
- test.summary: Drug level in mouse plasma at 50 mg/kg, po
- Format: ADME, organism-based
- Parameters: dose 50 mg/kg, route oral
- details: in vivo, read-out: Drug uptake
attribute.measured: concentration (µM)

- compound: "CSc1ccc(/C=C2/C(C)=C(CC(=O)O)c3cc(F)ccc32)cc1 [SULINDAC SULFIDE]"
  endpoint.result: 296
- compound: "COc1ccc2cc([C@H](C)C(=O)O)ccc2c1"
  endpoint.result: 887
- compound: "CC(=O)Nc1ccc(O)cc1"
  endpoint.result: 64
- compound: "CC(C(=O)O)c1cccc(Oc2ccccc2)c1 (centres undefined)"
  endpoint.result: 1360
